# credit: patent US20020059032A1

- systemName: guinea pig brain membranes
- method: Binding test with guinea pig brain membranes
- conditionSet: tested on guinea pig brain membranes; read-out: IC50 = 100 μM
Where a SMILES comes first, the peptide text is derived from it.
Reported IC50 values for a set of molecules
quantityName: IC50 (nM)

# molecule, measurementUnit, observedValue
data = [
    ("CC[C@H](C)[C@H](NC(=O)[C@H](Cc1ccccc1)NC(=O)[C@H](C)NC(=O)[C@H](CCSC)NC(=O)[C@@H](NC(=O)[C@H](CCC(=O)O)NC(=O)[C@@H]1CCCN1C(=O)CNC(=O)[C@H](CCCCN)NC(=O)[C@@H](N)CCSC)C(C)C)C(=O)N[C@@H](CCC(=O)O)C(=O)N[C@@H](CCC(N)=O)C(N)=O [Example 40, H-MKGPEVMAFIEQ-NH2] (H-MKGPEVMAFIEQ-NH2)", "nM", 130),
    ("CC[C@H](C)[C@H](NC(=O)[C@@H]1CCCN1C(=O)[C@@H](NC(=O)[C@H](Cc1ccccc1)NC(=O)[C@H](CC(C)C)NC(=O)[C@@H](NC(=O)[C@H](CO)NC(=O)CNC(=O)[C@H](CC(C)C)NC(=O)[C@H](CC(C)C)NC(=O)[C@@H]1CCCN1)[C@@H](C)O)[C@@H](C)CC)C(N)=O [Example 12, H-PLLGSTLFIPI-NH2] (H-PLLGSTLFIPI-NH2)", "nM", 20),
    ("CSCC[C@H](NC(=O)[C@H](Cc1ccccc1)NC(=O)[C@H](Cc1ccc(O)cc1)NC(=O)[C@H](CC(N)=O)NC(=O)[C@@H](N)CO)C(=O)N1CCC[C@H]1C(=O)N[C@@H](Cc1ccccc1)C(=O)N[C@@H](CO)C(=O)N[C@@H](C)C(N)=O [Example 21, H-SNYFMPFSA-NH2] (H-SNYFMPFSA-NH2)", "nM", 160),
    ("CC(C)[C@H](NC(=O)[C@H](C)NC(=O)[C@@H](NC(=O)[C@@H](NC(=O)[C@H](C)NC(=O)[C@@H](NC(=O)[C@@H](N)CCC(N)=O)[C@@H](C)O)C(C)C)[C@@H](C)O)C(=O)N[C@@H](CCC(=O)O)C(=O)N[C@@H](CCCCN)C(=O)N1CCC[C@H]1C(=O)N[C@@H](C)C(=O)N[C@@H](CC(=O)O)C(=O)N[C@@H](CCCCN)C(N)=O [Example 57, H-QTAVTAVEKPADK-NH2] (H-QTAVTAVEKPADK-NH2)", "nM", 60),
    ("CC[C@H](C)[C@H](NC(=O)[C@H](Cc1ccccc1)NC(=O)[C@H](CCC(=O)O)NC(=O)[C@@H]1CCCN1C(=O)[C@H](Cc1ccc(O)cc1)NC(=O)[C@H](Cc1c[nH]cn1)NC(=O)[C@H](CCC(=O)O)NC(=O)[C@@H](NC(=O)[C@@H](N)CC(C)C)C(C)C)C(N)=O [Example 45, H-LVEHYPEFI-NH2] (H-LVEHYPEFI-NH2)", "nM", 700),
    ("CC[C@H](C)[C@H](NC(=O)[C@H](C)NC(=O)[C@@H](NC(=O)[C@H](CCC(=O)O)NC(=O)[C@H](CCC(=O)O)NC(=O)[C@@H](NC(=O)CNC(=O)[C@H](Cc1ccccc1)NC(=O)[C@@H](NC(=O)[C@H](CC(=O)O)NC(=O)[C@@H](N)[C@@H](C)O)[C@@H](C)CC)C(C)C)[C@@H](C)O)C(N)=O [Example 56, H-TDIFGVEETAI-NH2] (H-TDIFGVEETAI-NH2)", "nM", 730),
    ("CSCC[C@H](NC(=O)[C@H](CC(C)C)NC(=O)CNC(=O)[C@H](Cc1ccccc1)NC(=O)[C@H](Cc1ccccc1)NC(=O)[C@H](CCC(N)=O)NC(=O)[C@H](CCC(N)=O)NC(=O)[C@@H]1CCCN1C(=O)[C@H](CCCCN)NC(=O)[C@@H]1CCCN1C(=O)[C@@H](N)Cc1ccc(O)cc1)C(N)=O [Example 64, H-YPKPQQFFGLM-NH2] (H-YPKPQQFFGLM-NH2)", "nM", 1),
    ("CC[C@H](C)[C@H](NC(=O)[C@H](CO)NC(=O)[C@H](Cc1ccccc1)NC(=O)[C@@H](N)CO)C(=O)N[C@H](C(=O)NCC(=O)N[C@@H](CC(=O)O)C(=O)N[C@@H](Cc1ccccc1)C(=O)N[C@@H](CCC(N)=O)C(=O)N[C@@H](CC(N)=O)C(N)=O)[C@@H](C)CC [Example 30, H-SFSIIGDFQN-NH2] (H-SFSIIGDFQN-NH2)", "nM", 27000),
    ("CC[C@H](C)[C@H](N)C(=O)N[C@@H](CO)C(=O)N[C@@H](CCC(=O)O)C(=O)N[C@@H](CC(C)C)C(=O)N[C@@H](Cc1ccccc1)C(=O)N[C@H](C(=O)N[C@@H](CC(C)C)C(=O)N[C@@H](CCC(=O)O)C(N)=O)[C@@H](C)O [Example 35, H-ISELFTLE-NH2] (H-ISELFTLE-NH2)", "nM", 5600),
    ("CSCC[C@H](N)C(=O)NCC(=O)N[C@@H](CCCCN)C(=O)N[C@@H](Cc1c[nH]c2ccccc12)C(=O)N[C@@H](Cc1c[nH]cn1)C(=O)N[C@H](C(=O)NCC(N)=O)C(C)C [Example 67, H-MGKWHVG-NH2] (H-MGKWHVG-NH2)", "nM", 160),
    ("CC(C)C[C@H](NC(=O)[C@H](C)NC(=O)[C@H](CCC(=O)O)NC(=O)[C@H](CCC(N)=O)NC(=O)[C@@H](N)CC(C)C)C(=O)N[C@@H](CO)C(=O)N[C@@H](CCCCN)C(=O)N[C@@H](C)C(=O)N[C@@H](C)C(N)=O [Example 50, H-LQEALSKAA-NH2] (H-LQEALSKAA-NH2)", "nM", 1000),
    ("CC(C)C[C@H](NC(=O)[C@H](CC(N)=O)NC(=O)[C@H](CC(=O)O)NC(=O)[C@H](Cc1c[nH]c2ccccc12)NC(=O)[C@@H](NC(=O)[C@H](CC(C)C)NC(=O)[C@H](CC(=O)O)NC(=O)[C@H](CO)NC(=O)[C@H](C)NC(=O)[C@@H](N)CO)[C@@H](C)O)C(=O)N[C@@H](CCCCN)C(N)=O [Example 34, H-SASDLTWDNLK-NH2] (H-SASDLTWDNLK-NH2)", "nM", 1000),
]
